measured.on: T1, IL23R_huFC (human, UniProt Q5VWK5 24-353)
T1 sequence (looked up): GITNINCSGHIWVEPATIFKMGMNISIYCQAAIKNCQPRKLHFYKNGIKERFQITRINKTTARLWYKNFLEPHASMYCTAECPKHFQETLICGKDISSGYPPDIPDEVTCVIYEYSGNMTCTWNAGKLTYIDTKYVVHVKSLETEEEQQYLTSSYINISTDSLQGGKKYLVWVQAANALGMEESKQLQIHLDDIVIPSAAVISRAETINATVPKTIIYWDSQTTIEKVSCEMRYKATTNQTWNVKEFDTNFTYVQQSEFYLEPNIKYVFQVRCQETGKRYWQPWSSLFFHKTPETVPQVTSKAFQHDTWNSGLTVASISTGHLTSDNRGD
assay.method.text: IL23-IL23R competitive ELISA
pIC50: −log10 of the molar value. Bridges are numbered along the chain shown (N, C = ends). [ ]: non-standard residue; d: D form. Bip = N[C@@H](Cc1ccc(-c2ccccc2)cc1)C(=O)O; AEA = NCCOCC(=O)O
property.measured: pIC50

Query: Requested field: pIC50. Item: Ac-CADWVCY[Bip]HTFG[AEA][dK]-NH2 (disulfide 1-6; SMILES CC(=O)N[C@H]1CSSC[C@@H](C(=O)N[C@@H](Cc2ccc(O)cc2)C(=O)N[C@@H](Cc2ccc(-c3ccccc3)cc2)C(=O)N[C@@H](Cc2c[nH]cn2)C(=O)N[C@H](C(=O)N[C@@H](Cc2ccccc2)C(=O)NCC(=O)NCCOCC(=O)N[C@H](CCCCN)C(N)=O)[C@@H](C)O)NC(=O)[C@H](C(C)C)NC(=O)[C@H](Cc2c[nH]c3ccccc23)NC(=O)[C@H](CC(=O)O)NC(=O)[C@H](C)NC1=O) [Ac-CADWVCY-[Bip]-HTFG-[AEA]-[(D)Lys]-NH2]
Response: < 6.00
